Each recorded value in this set is attributed to patent US20260242478A1.

# key: entry, value: Phage binding ELISA signal, Anti-PSMA Fab
target: T1, 006 PSMA Fab; experiment: phage binding ELISA; biotinylated PSMA Fab on neutravidin plate, clonal phage supernatant, anti-M13 HRP detection; blocking buffer alone;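 note: before phage were added, wells were preincubated with blocking buffer either containing PSMA antigen or without it, and phage were then added with no wash in between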
T1 construct: also called Anti-PSMA Fab
Where no end group is shown, it is not given here.
EXPERIMENTAL READOUT: Phage binding ELISA signal, Anti-PSMA Fab

>>> print(df.to_string())
                                     binder  numeric_value
0  TIKWCTPSWMCAEI (cysteine pairing not given here; also: displayed on bacteriophage as fusion to pIII) [Phage-2703]          0.811
1               FVKWCTPSWMCESQ [Phage-2697]          0.828
2               GSHWCEPLWMCSAF [Phage-2699]          0.824
3               MDRWCTPAWMCEVH [Phage-2708]          0.794
4               DYKWCTPPWMCYSA [Phage-2706]          0.804
5               IEKWCTPPWMCESS [Phage-2700]          0.824
6               EQMWCTPAWMCTGF [Phage-2705]           0.81
7  HWRMCVPTWMCHLD (cysteine pairing not given here; also: displayed on bacteriophage as fusion to pIII) [Phage-2695]           0.83
8               DNKMCIPVWMCERF [Phage-2698]          0.824
